# Subject Of Test: 5-hydroxytryptamine receptor 1A (Rattus norvegicus, UniProt P19327)
# Sequence (P19327 whole entry): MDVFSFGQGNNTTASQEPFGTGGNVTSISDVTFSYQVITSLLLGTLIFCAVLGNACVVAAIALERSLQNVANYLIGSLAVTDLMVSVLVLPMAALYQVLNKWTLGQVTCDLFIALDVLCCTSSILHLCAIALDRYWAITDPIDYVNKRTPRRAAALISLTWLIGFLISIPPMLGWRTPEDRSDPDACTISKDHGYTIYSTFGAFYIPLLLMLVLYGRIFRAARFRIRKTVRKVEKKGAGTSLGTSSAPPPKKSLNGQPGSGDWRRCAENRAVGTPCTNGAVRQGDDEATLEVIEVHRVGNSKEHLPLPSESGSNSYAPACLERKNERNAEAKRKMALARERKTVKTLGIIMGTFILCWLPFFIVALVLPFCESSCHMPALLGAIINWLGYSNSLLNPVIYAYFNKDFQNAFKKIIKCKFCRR
# Method Description: Agonist activity at rat 5HT1A receptor
pKi: −log10 of the molar value.
Measurement Name: pKi

Smiles Record | Measurement
Cc1ccc2c(OCCN3CCC(Cc4cc5c(cc4F)OCC(=O)N5)CC3)cc(F)cc2n1 | < 9.00

Answer with pKi of Cc1ccc2c(OCCN3CCC(Cc4cc5c(cc4F)OCC(=O)N5)CC3)cc(Cl)cc2n1 measured for 5-hydroxytryptamine receptor 1A (Rattus norvegicus, UniProt P19327).
< 9.00

---

Record: Ki reported on 5-hydroxytryptamine receptor 7 (Homo sapiens).
Sequence (P34969 whole entry): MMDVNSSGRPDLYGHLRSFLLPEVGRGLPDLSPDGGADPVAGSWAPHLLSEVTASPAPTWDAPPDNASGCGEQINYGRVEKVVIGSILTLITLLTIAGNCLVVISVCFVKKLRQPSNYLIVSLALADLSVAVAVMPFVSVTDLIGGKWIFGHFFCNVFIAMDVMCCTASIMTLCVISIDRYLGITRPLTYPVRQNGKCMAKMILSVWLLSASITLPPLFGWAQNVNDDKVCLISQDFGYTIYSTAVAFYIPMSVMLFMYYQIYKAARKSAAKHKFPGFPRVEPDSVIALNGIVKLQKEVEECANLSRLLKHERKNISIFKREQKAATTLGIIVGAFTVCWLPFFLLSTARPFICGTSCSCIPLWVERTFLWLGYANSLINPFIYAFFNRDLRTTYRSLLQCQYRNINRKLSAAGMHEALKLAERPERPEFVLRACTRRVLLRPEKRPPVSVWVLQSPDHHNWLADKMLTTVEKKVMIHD
Measurement Name: Ki (nM)

Smiles Record | Subject Of Test | Ki, nM
Cc1ccc2c(OCCN3CCC(Cc4ccc5c(c4F)NC(=O)CO5)CC3)cc(F)cc2n1 | 5-hydroxytryptamine receptor 7 (Homo sapiens) | 126

1: Cc1ccc2c(OCCN3CCC(Cc4cc5c(cc4F)OCC(=O)N5)CC3)cc(F)cc2n1
2: Cc1ccc2c(OCCN3CCC(Cc4cc(F)c5c(c4)NC(=O)CO5)CC3)cc(F)cc2n1
When their Ki values are compared, which is larger, 1 or 2 ? Respond using the label that marks the chosen record.
2
(2: 79.4 nM, 1: 39.8 nM)

---

# Method Description: Oral bioavailability in rat at 3 mg/kg, po
# Assay type: ADME, organism-based
# Condition Set: in vivo
Measurement Name: bioavailability (%)

Smiles Record | Measurement
Cc1ccc2c(OCCN3CCC(Cc4ccc5c(c4)NC(=O)CO5)CC3)cc(Cl)cc2n1 | 56

a: Cc1ccc2c(OCCN3CCC(Cc4cc(F)c5c(c4)NC(=O)CO5)CC3)cc(Cl)cc2n1
b: Cc1ccc2c(OCCN3CCC(Cc4cc5c(cc4F)OCC(=O)N5)CC3)cccc2n1
When their bioavailability values are compared, which is larger, a or b ? Respond using the label that marks the chosen record.
a

P: Cc1ccc2c(OCCN3CCC(Cc4ccc5c(c4)NC(=O)CO5)CC3)cc(F)cc2n1
Q: Cc1ccc2c(OCCN3CCC(Cc4cc5c(cc4F)OCC(=O)N5)CC3)cc(Cl)cc2n1
When their bioavailability values are compared, which is larger, P or Q ? Respond using the label that marks the chosen record.
Q

---

# Method Description: Oral bioavailability in rat at 3 mg/kg, po
# Type: ADME, organism-based
# Condition Set: in vivo
Measurement Name: bioavailability (%)

Smiles Record | Readout Unit | Measurement
Cc1ccc2c(OCCN3CCC(Cc4cc5c(cc4F)OCC(=O)N5)CC3)cc(F)cc2n1 | % | 54
Cc1ccc2c(OCCN3CCC(Cc4ccc5c(c4F)NC(=O)CO5)CC3)cc(Cl)cc2n1 | % | 43
Cc1ccc2c(OCCN3CCC(Cc4ccc5c(c4F)NC(=O)CO5)CC3)cc(F)cc2n1 | % | 39

meta.source: ChEMBL document CHEMBL1139046
